src = patent US20240315299A1

The reader will find reported EC50 values listed item by item below.
- assayTarget: T1R umami taste receptor (Homo sapiens, UniProt Q7RTX0+Q7RTX1)
- Sequence (Q7RTX1 21-841): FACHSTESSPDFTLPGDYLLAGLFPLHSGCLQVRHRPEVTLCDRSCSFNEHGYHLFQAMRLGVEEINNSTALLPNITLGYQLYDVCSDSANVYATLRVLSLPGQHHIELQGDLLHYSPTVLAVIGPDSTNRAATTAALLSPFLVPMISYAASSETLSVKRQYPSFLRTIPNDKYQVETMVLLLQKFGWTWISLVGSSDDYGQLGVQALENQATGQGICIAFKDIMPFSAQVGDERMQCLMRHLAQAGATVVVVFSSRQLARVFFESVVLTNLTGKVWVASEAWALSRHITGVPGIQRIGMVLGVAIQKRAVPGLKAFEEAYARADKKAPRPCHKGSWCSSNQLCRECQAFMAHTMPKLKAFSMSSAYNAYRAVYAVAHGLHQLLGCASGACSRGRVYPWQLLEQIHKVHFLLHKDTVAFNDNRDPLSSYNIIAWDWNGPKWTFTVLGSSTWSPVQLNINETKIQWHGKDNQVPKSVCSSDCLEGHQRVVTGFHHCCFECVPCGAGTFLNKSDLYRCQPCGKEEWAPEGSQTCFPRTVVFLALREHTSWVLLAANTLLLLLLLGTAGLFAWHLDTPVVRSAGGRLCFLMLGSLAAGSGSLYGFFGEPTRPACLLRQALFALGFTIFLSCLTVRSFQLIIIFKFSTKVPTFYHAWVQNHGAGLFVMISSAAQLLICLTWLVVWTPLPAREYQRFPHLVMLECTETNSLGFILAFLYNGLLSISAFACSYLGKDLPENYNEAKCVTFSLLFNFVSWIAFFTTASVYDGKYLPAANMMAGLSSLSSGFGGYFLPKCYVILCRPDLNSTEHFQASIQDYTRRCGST
- Sequence (Q7RTX0 21-852): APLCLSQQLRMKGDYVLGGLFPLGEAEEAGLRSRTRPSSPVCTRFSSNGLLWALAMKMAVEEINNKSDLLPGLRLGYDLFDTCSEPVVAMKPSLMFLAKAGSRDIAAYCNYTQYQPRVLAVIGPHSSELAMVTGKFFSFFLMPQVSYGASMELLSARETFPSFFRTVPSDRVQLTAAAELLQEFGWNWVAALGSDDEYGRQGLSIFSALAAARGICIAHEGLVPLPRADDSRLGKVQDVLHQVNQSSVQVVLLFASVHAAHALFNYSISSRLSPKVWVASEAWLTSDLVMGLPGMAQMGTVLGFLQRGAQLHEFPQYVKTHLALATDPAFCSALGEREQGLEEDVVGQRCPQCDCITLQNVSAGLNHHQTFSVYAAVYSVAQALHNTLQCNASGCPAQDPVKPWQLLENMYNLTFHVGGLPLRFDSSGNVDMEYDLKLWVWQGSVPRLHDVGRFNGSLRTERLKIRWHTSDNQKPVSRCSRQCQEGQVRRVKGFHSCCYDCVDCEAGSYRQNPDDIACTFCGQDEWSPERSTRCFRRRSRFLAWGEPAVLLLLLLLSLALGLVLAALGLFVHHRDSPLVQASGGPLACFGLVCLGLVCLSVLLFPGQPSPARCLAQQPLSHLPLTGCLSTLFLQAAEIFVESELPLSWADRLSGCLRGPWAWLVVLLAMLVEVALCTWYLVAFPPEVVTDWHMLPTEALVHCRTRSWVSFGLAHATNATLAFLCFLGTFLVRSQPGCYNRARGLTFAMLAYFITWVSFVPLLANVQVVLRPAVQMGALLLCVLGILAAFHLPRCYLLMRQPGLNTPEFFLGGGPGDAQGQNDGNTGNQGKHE
- method: in vitro cell-based assay, enhancement of MSG binding at umami taste receptor
- conditionSet: cells that express the T1R umami taste receptor, from dose-binding curves

Solved entries (count: 3):
Qu. Param item = `CC(=O)NCCCCNC(=O)/C=C/c1ccccc1` ; retrieve measured EC50.
Ans. > 50 µM

Qu. Param item: `CC(C)C(=O)NCCCCNC(=O)/C=C/c1ccccc1`
Ans. > 50 µM

Qu. Param item: `C/C=C(\C)C(=O)NCCCCNC(=O)/C=C/c1ccc2c(c1)OCO2`
Ans. 20 µM

Continuing:
Qu. Param item = `C/C=C(\C)C(=O)NCCCCNC(=O)/C=C/c1ccc(O)c(OC)c1` ; retrieve measured EC50.
Ans. > 50 µM

Qu. Param item: `COc1ccc(C(=O)OC/C=C(\C)C(=O)NCCCCNC(=O)/C=C/c2ccccc2)cc1`
Ans. 23 µM

Qu. Param item: `CC(C)=CC(=O)NCCCCNC(=O)/C=C/c1ccccc1`
Ans. > 50 µM

Qu. Param item: `C/C=C(\C)C(=O)NCCCCNC(=O)/C=C/c1ccccc1`
Ans. < 8 µM

Qu. Param item: `C/C=C(\C)C(=O)NCCCCNC(=O)/C=C/c1ccc(OC)cc1`
Ans. < 1 µM

Qu. Param item: `CC(C)=C(C)C(=O)NCCCCNC(=O)/C=C/c1ccccc1`
Ans. > 50 µM

Qu. Param item: `C/C=C(\C)C(=O)NCCCCNC(=O)c1ccc(C)c(C)c1`
Ans. < 1 µM

Qu. Param item: `C/C(=C\CO)C(=O)NCCCCNC(=O)/C=C/c1ccccc1`
Ans. < 12 µM

Qu. Param item: `C/C=C(\C)C(=O)NCCCCNC(=O)c1cc(C)c(C)c(C)c1`
Ans. 2 µM

###

- assayTarget: T1R umami taste receptor (Homo sapiens, UniProt Q7RTX0+Q7RTX1)
- Sequence (Q7RTX1 21-841): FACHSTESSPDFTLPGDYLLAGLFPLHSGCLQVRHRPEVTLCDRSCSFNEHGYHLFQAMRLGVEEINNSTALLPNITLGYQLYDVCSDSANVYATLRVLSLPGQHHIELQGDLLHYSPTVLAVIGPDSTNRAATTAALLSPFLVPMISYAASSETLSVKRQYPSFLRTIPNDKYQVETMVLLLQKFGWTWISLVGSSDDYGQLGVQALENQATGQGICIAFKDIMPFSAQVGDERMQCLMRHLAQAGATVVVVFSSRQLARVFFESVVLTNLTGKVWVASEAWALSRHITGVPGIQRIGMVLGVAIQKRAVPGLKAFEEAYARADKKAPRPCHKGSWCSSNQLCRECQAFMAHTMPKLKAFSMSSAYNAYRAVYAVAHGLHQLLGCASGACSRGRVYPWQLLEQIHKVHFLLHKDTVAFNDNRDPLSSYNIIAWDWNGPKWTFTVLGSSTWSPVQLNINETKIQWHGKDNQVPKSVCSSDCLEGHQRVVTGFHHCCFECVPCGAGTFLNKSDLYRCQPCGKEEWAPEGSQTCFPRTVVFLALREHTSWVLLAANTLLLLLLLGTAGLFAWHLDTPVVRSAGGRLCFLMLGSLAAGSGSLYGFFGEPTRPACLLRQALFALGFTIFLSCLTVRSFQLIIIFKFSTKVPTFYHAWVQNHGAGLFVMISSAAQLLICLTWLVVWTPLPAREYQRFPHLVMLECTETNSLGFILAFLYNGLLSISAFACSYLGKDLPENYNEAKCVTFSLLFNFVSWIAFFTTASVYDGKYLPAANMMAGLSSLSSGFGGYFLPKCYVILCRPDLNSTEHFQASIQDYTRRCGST
- Sequence (Q7RTX0 21-852): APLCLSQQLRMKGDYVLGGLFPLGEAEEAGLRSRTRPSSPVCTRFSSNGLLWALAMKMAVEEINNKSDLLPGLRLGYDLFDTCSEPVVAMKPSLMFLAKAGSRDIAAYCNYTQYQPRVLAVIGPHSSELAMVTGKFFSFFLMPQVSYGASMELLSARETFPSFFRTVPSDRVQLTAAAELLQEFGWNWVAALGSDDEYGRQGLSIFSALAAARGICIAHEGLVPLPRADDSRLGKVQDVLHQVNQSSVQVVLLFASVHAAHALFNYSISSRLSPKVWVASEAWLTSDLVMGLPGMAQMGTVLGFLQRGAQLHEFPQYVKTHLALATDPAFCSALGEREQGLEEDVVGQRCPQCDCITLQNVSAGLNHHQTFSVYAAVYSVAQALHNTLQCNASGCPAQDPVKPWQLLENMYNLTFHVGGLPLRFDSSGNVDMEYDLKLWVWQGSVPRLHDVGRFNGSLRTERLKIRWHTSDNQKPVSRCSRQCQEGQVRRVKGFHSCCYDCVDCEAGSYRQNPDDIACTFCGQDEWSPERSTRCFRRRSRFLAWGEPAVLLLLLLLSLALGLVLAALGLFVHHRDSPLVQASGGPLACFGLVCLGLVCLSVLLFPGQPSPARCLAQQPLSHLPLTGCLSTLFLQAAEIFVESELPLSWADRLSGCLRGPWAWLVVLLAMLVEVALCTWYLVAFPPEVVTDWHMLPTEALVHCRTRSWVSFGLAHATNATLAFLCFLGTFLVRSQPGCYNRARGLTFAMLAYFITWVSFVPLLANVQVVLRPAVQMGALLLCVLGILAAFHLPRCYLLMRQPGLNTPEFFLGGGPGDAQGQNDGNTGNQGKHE
- method: in vitro cell-based assay, enhancement of MSG binding at umami taste receptor
- conditionSet: cells that express the T1R umami taste receptor, from dose-binding curves
pEC50: −log10 of the molar value.
quantity: pEC50

Qu. Give recorded pEC50 with T1R umami taste receptor (Homo sapiens, UniProt Q7RTX0+Q7RTX1) for the following compound: `O=C(/C=C/c1ccccc1)NCCCCNC(=O)c1ccc(O)cc1`
Ans. < 4.30

Continuing:
Qu. Give recorded pEC50 with T1R umami taste receptor (Homo sapiens, UniProt Q7RTX0+Q7RTX1) for the following compound: O=C(/C=C/c1ccccc1)NCCCCNC(=O)c1ccccc1 [Compound 123, N-(4-cinnamamidobutyl)benzamide]
Ans. < 4.30

Qu. Param item: `C/C=C(\C)C(=O)NCCCCNC(=O)/C=C/c1ccc(OC)c(OC)c1`
Ans. 5.40

Qu. Param item: `C/C=C(\C)C(=O)NCCCCNC(=O)/C=C/c1ccc(OC)c(O)c1`
Ans. < 4.30
